System: BDF1 mice, P388 leukemia ip, median survival T/C
assayProcedure: NCI In Vivo Anticancer Drug Screen. Data for tumor model P388 Leukemia (intraperitoneal) in B6D2F1 (BDF1) mice
testContext: endpoint: median survival time; dose: 200.0 mg/kg/injection; schedule: Q01DX009 (ip); vehicle: Klucel (hydroxypropylcellulose) (HPC); higher = longer survival
Inconclusive results and toxic doses are left out.
# T/C per entry

{"columns": ["smilesStructure", "target", "result"],
 "data": [
  ["CC(=O)NNC(=O)c1ccccc1", "BDF1 mice, P388 leukemia ip, median survival T/C", "91 % of control"],
  ["CN(C(=O)N(C)c1ccccc1)c1ccccc1", "BDF1 mice, P388 leukemia ip, median survival T/C", "90 % of control"],
  ["Nc1ccc(Cl)cc1C(=O)c1ccc[nH]1", "BDF1 mice, P388 leukemia ip, median survival T/C", "95 % of control"]
]}

Prompt line: Determine its reported T/C: "COc1ccccc1NC(=O)c1ccc(Cl)cc1Cl"
Response line: 104 % of control

====

Tested on: BDF1 mice, P388 leukemia ip, median survival T/C
assayProcedure: NCI In Vivo Anticancer Drug Screen. Data for tumor model P388 Leukemia (intraperitoneal) in B6D2F1 (BDF1) mice
testContext: endpoint: median survival time; dose: 25.0 mg/kg/injection; schedule: Q01DX009 (ip); vehicle: saline with Tween-80; higher = longer survival
Inconclusive results and toxic doses are left out.
readout: T/C

For orientation, consider the following solved cases.
{"columns": ["smilesStructure", "readout", "result"],
 "data": [
  ["COc1ccc(CNCCNCCNCc2ccc(OC)cc2)cc1", "T/C", "87 % of control"],
  ["COC(=O)c1c(Cl)c(Cl)c(C(=O)OC)c(Cl)c1Cl", "T/C", "100 % of control"],
  ["COC(=O)c1ncccc1C(=O)O", "T/C", "86 % of control"],
  ["O=C(NC(=O)c1c(F)cccc1F)Nc1ccc(Br)cn1", "T/C", "99 % of control"],
  ["COc1cccc(/C=N/NC(=O)C[n+]2ccccc2)c1OC", "T/C", "100 % of control"]
]}

Prompt line: Determine its reported T/C: "O=C(O)c1ccccc1P12(OC(=O)c3ccccc31)OC(=O)c1ccccc12"
Response line: 99 % of control

====

Tested on: BDF1 mice, P388 leukemia ip, median survival T/C
assayProcedure: NCI In Vivo Anticancer Drug Screen. Data for tumor model P388 Leukemia (intraperitoneal) in B6D2F1 (BDF1) mice
testContext: endpoint: median survival time; dose: 0.5 mg/kg/injection; schedule: Q01DX009 (ip); vehicle: saline
Inconclusive results and toxic doses are left out. Rule for the calls: active = survival T/C of 150% or more; inactive = T/C below 125% in these data.
Outcomes you can answer with include only these: active, inactive

Answered cases to consult:
{"columns": ["molecule", "target", "cat"],
 "data": [
  ["COc1cccc2c1C(=O)c1c(O)c3c(c(O)c1C2=O)C[C@@](O)(C(=O)CO)C[C@@H]3OC1CC(N)C(O)C(C)O1 (some centres undefined)", "BDF1 mice, P388 leukemia ip, median survival T/C", "active"],
  ["CN(C)c1ccc(-c2cc[n+](C)cc2)cc1", "BDF1 mice, P388 leukemia ip, median survival T/C", "inactive"],
  ["ClCCN(CCCl)CCNc1ccnc2cc(Cl)ccc12", "BDF1 mice, P388 leukemia ip, median survival T/C", "inactive"]
]}

Please look at the following molecule next.
Prompt line: What call does the record list for "COC(=O)[C@@H](O)[C@](O)(CCC(C)C)C(=O)O[C@@H]1C(OC)=C[C@]23CCCN2CCc2cc4c(cc2[C@H]13)OCO4" ?
Response line: inactive
